Each entry below carries its reported Ki.
# target-under-test: Sigma non-opioid intracellular receptor 1 (Cavia porcellus)
# test-name: Displacement of [3H](+)-pentazocine from Sigma opioid receptor type 1 in guinea pig brain membrane
readout-name: Ki (nM)

1. CN(CCc1ccccc1[N+](=O)[O-])CCN1CCCC1 ... 7.7
2. CN(CCN1CCCC1)C(=O)Cc1ccccc1[N+](=O)[O-] ... 736
3. COc1ccc(CCN(C)CCN2CCCC2)cc1 ... 30.3
4. CN(CCc1ccc(N)cc1)CCN1CCCC1 ... 276
5. CN(CCc1ccc([N+](=O)[O-])cc1)CCN1CCCC1 ... 4.3
6. COc1cccc(CCN(C)CCN2CCCC2)c1 ... 23.8
7. CN(CCc1cccc([N+](=O)[O-])c1)CCN1CCCC1 ... 6.4

Taken from BindingDB's records for doi:10.1021/jm9600813.
